Sequence of the target: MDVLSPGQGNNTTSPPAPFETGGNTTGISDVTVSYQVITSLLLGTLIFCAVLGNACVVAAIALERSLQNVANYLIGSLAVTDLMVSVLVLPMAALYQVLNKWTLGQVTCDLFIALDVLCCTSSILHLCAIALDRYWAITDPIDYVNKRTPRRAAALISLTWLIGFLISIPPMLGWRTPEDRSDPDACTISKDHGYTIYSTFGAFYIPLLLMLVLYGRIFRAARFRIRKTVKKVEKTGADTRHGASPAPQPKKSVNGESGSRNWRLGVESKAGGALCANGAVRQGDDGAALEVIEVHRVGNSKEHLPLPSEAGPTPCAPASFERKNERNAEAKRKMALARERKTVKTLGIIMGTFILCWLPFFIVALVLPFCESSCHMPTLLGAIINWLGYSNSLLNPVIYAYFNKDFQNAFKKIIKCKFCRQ
readout-name: pKi
// pKi is dimensionless: -log10 of concentration (M)

// known answers, use as guide
INSERT INTO measurements (sample_smiles, observed_value) VALUES
  ('CN1CCC(c2c[nH]c3ccc(NC(=O)c4ccc([N+](=O)[O-])cc4)nc23)CC1', 7.42),
  ('CN1CCC(c2c[nH]c3ccc(NC(=O)c4ccco4)nc23)CC1', 6.25),
  ('CN1CCC(c2c[nH]c3ccc(NC(=O)c4cccc(F)c4)nc23)CC1', 6.87);

Now consider a different molecule.
## Task Look at this molecule and give its reported pKi. CN1CCC(c2c[nH]c3ccc(NC(=O)c4ccccc4)nc23)CC1
## Result 7.14
